Target: T1, FX activation peptide 12-mer KPYDAADLDPTE (human)
T1 peptide: KPYDAADLDPTE-biotin
Assay: peptide ELISA
Ends that are not written are not given here.
Measured ELISA signal relative to background of individual entries
Field format: numeric only.

Nb 702C12 (VHH, monovalent Nanobody; not shown: C-terminal FLAG3 and HIS6 tag) VHH: EVQLVESGGGVVQPGGSLRLSCVASGRTFSRYAMGWFRQAPGKEREFVAAISRRGGSTNYADSVKGRFTISRDNSKNTVYLQMNSLRPEDTALYYCAADYSSGDGYLDYWGQGTLVTVSS = 0.8
Nb 730C03 (VHH, monovalent Nanobody; also called Nb 730003; not shown: C-terminal FLAG3 and HIS6 tag) VHH: EVQLVESGGGVVQPGGSLRLSCVASGFTFSDYAMSWVRQAPGKGLEWVSGITSGSGRTYYADSVKGRFTISRDNSKNTVYLQMNSLRPEDTALYYCAAAILRGYRKTYDYWGQGTLVTVSS = 1.17
Nb 701D07 (VHH, monovalent Nanobody; not shown: C-terminal FLAG3 and HIS6 tag) VHH: EVQLVESGGGVVQPGGSLRLSCAASGGTLSRYAMGWFRQAPGKEREFVAAITRRGSRTYYADSVKGRFTISRDNSKNTVYLQMNSLRPEDTALYYCAADLAPGDYALDYWGQGTLVTVSS = 0.73
Nb 729A04 (VHH, monovalent Nanobody; not shown: C-terminal FLAG3 and HIS6 tag) VHH: EVQLVESGGGVVQPGGSLRLSCAASGFTFSDYAMSWVRQAPGKGLEWVSGITSGGGRTYYADSVKGRFTISRDNSKNTLYLQMNSLRPEDTALYYCAAVRTLGLRGSYDYWGQGTLVTVSS = 1.33

Indicate the recorded ELISA signal relative to background value for this binder: Nb 701C06 (VHH, monovalent Nanobody; not shown: C-terminal FLAG3 and HIS6 tag) VHH: EVQLVESGGGVVQPGGSLRLSCAASGRTFSTYAMGWFRQAPGKEREFVAAISRRGGRTYYADSVKGRFTISRDNSKNTVYLQMNSLRPEDTALYYCAADATARDGLLDYWGQGTLVTVSS
0.9

Give reported ELISA signal relative to background value for Nb 501A02 (VHH, monovalent control Nanobody; also called control Nanobody; not shown: C-terminal FLAG3 and HIS6 tag) VHH: EVQLVESGGGLVQPGGSLRLSCAASGFTFSNYEMSWVRQAPGKGLEWVSDIGSGGGVSTYYADSVKGRFTISRDNAKNTLYLQMNSLKPEDTAMYYCARGWTYGSDGMDYWGKGTLVTVSS
0.82

Retrieve ELISA signal relative to background measured for Nb 729C08 (VHH, monovalent Nanobody; also called Nb 729008; not shown: C-terminal FLAG3 and HIS6 tag) VHH: EVQLVESGGGVVQPGGSLRLSCAASGFTFSDYAMSWVRQAPGKGLEWVSGITGGGRTYYADSVKGRFTISRDNSKNTLYLQMNSLRPEDTALYYCAAAILTRTRRTYDYWGQGTLVTVSS and print it.
1.1
